# test.description: Ratio of unbound brain concentration to unbound plasma concentration in iv or sc dosed Wistar Han rat
# Assay type: ADME, organism-based
# applied.conditions: brain and plasma, read-out: K(p,uu,brain)
measured.property: Kp uu
One number for each entry.

## Input Given the entry Cc1nc(-c2cnn(C)c2-c2ccc(C(F)(F)F)cn2)c2c(N3CCC3)ncnn12 [PF-05180999] , report its measured Kp uu.
## Output 0.71

---

# test.description: Ratio of unbound brain concentration to unbound plasma concentration in sc dosed CD-1 mouse
# Assay type: ADME, organism-based
# applied.conditions: brain and plasma, read-out: K(p,uu,brain)
measured.property: Kp uu
One number for each entry.

## Input Bench note: what Kp uu did Cc1nc(-c2cnn(C)c2-c2ccc(C(F)(F)F)cn2)c2c(N3CCC3)ncnn12 [PF-05180999] show?
## Output 0.51

---

# test.description: 1-octanol/phosphate buffer solution partition coefficient, log D of the compound at pH 7.4 after 1 hr by LC-MS/MS method
# Format: physicochemical
I'd be grateful if you could share measured logD at 1 h for these entries.
Answers are plain numbers.

Worked examples, 4 compounds total:
Cc1nc(-c2cnn(C)c2-c2ccc(C(F)(F)F)cn2)c2c(N3CCC3)ncnn12 :: 2.3
CNc1ncnn2c(C)nc(-c3cnn(C)c3-c3ccc(C(F)(F)F)cn3)c12 :: 1.8
Cc1nc(-c2cnn(C)c2-c2ccc(Cl)cn2)c2c(N3CCC3)ncnn12 :: 1.7
CNc1ncnn2c(C)nc(-c3cnn(C)c3-c3ccc(C(F)(F)F)cc3)c12 :: 2.8

Next, consider the following compound.
## Input Sample `Cn1ncc(-c2nn(C)c3ncnc(N4CCC4)c23)c1-c1ccc(C(F)(F)F)cc1` — what was its logD at 1 h?
## Output 2.9

---

# test.description: Cmax in beagle dog at 5 mg/kg, po administered via gavage by LC-MS/MS analysis
# Format: ADME, organism-based, Canis lupus familiaris
# Set-up: dose 5 mg/kg, route oral
# applied.conditions: in vivo
measured.property: Cmax (ng/mL)
Answers are plain numbers, in ng/mL.

## Input Consider the compound shown here: `Cc1nc(-c2cnn(C)c2-c2ccc(C(F)(F)F)cn2)c2c(N3CCC3)ncnn12` What is its recorded Cmax?
## Output 1770

All figures here come from ChEMBL document CHEMBL4024790.
